Exercise: state measured Wild oats plant response rating for each of the molecules provided.
System: wild oat
Assay Text: Test B pre/postemergence wild oat
Format: in vivo, Avena fatua
Measurement Setup: Preemergence, Rate 250 g/ha; scale 0 to 10, 0 is no effect, 10 is complete control
Give bare numbers.

{"columns": ["Molecule", "System Under Test", "Recorded Measurement"],
 "data": [
  ["CC(C)N(C(=O)n1oc(=O)n(CCCC(F)(F)F)c1=O)c1ccc(F)cc1", "wild oat", 3],
  ["CC(C)N(C(=O)n1oc(=O)n(CC2=NOCCC2)c1=O)c1ccccc1", "wild oat", 3],
  ["CC(C)N(C(=O)n1oc(=O)n(C(C)CCl)c1=O)c1ccccc1 (stereo not shown)", "wild oat", 8]
]}

GET /values?readout=Wild oats plant response rating&system=wild oat&item= CC(C)N(C(=O)n1oc(=O)n(CC#N)c1=O)c1ccc(F)cc1F
2

Origin of measurements: patent US6737383B1
